Test system: NCI-H460 lung
Test: NCI-60 one-dose screen, 48 h
Details: 10 µM unless noted
The panel holds about 83,000 compounds, 20% with a hit somewhere; the sample as a whole holds those more often. The source made the active and inactive calls. Rule for the calls: active = growth percent below 10; inactive = the rest.
The categories you may choose from are true (1) (active), false (0) (inactive)

# lookup: test call for C#CC#CC#CC#CC#CC#CC#CC#CC[C@H]1OC[C@H](COC(=O)O[C@@H](C(=O)O[C@H]2C[C@@]3(O)[C@@H](OC(=O)c4ccccc4)[C@@H]4[C@]5(OC(C)=O)CO[C@@H]5C[C@H](O)[C@@]4(C)C(=O)[C@H](OC(C)=O)C(=C2C)C3(C)C)[C@@H](NC(=O)c2ccccc2)c2ccccc2)O1
false (0)

Query: recorded result category for COc1cc(-c2nc3ccc(C)cc3[nH]2)ccc1OCC(=O)N=Nc1c(O)[nH]c2ccc(Cl)cc12 in this test
true (1)

What call does the record list for O=C(/C=C\c1ccco1)/C=C/c1ccco1 ?
false (0)

GET /call?item= COc1ccc2nc(SCC(=O)Nc3ccccc3C)[nH]c2c1 returns the recorded outcome of this test.
false (0)

Tell me the recorded outcome of this test for Cc1nc2sc(C(=O)Nc3ccc(Cl)cc3)c(N)c2cc1C(O)c1ccccc1 (stereo not drawn) .
false (0)

Which result was noted for this compound in the test: COC(=O)c1ccc2c(c1)c1c(C)c3ccncc3c(C)c1n2C
true (1)

Hey, what did the test say about C=CCCC(=O)N1C=CC(=O)[C@H](O)[C@@H]1/C=C/c1ccccc1 ?
false (0)

What did this assay record as the result for Cc1cc(C(=O)Nc2cc(Nc3ncccc3-c3ncnc4nc[nH]c34)ccc2F)cc(C(F)(F)F)c1 ?
false (0)

====

System: HCT-15 colon
Assay: NCI-60 one-dose screen, 48 h
Conditions: 10 µM unless noted
The panel holds about 83,000 compounds, 20% with a hit somewhere; the sample as a whole holds those more often. Active and inactive are the calls of the source. The calls were made as follows: active = growth percent below 10; inactive = the rest.
Write down one outcome, taken from 1 for active, -1 for inactive

For orientation, consider the following solved cases.
Cc1ccc(/C=C2\CN(C(=O)C(Cl)Cl)C/C(=C\c3ccc(C)cc3)C2=O)cc1 :: 1
COc1ccc2c(c1)c(-c1nc(-c3cn(C)c4ncccc34)cs1)cn2CCO :: -1
N#Cc1nc(-c2ccc(F)cc2)oc1S(=O)(=O)N1CCN(c2ccc(F)cc2)CC1 :: -1

Then this molecule:
Per the assay record, what outcome was assigned to C=NNc1ccccc1 ?
-1

====

Tested on: NCI/ADR-RES ovarian
Assay: NCI-60 one-dose screen, 48 h (100 = growth as untreated, 0 = no growth, -100 = all killed)
Settings: 10 µM unless noted
Experimental: Growth inhibition of the NCI/ADR-RES human […] tumor cell line is measured as a screen for anti-cancer activity. Cells are grown in 96 well plates and exposed to the test compound for 48 hours. Compounds are tested at a single concentration, which is 10^-5 M for most compounds. The reported endpoint is percent growth (GI% or GIPRCNT), where numbers from 0 - 100% represent growth inhibition, and numbers from -100% - 0 represent cell death. For example, a value of 40 represents 60% growth inhibition. […]
The panel holds about 83,000 compounds, 20% with a hit somewhere; the sample as a whole holds those more often.
result type: growth (%)
One number for each entry, in %.

// below: answered molecules
COc1cc2c(cc1O)[C@@]1(C)[C@H](c3ccccc3Br)OC(=O)N1CC2 :: 83.8
CC1=NN(c2ccc(Cl)cc2)CC1(C)N=O (centres undefined) :: 94.4
COc1cc2cc(Oc3ccc(NC(=O)Nc4ccccc4)cc3)c(C)nc2cc1OCCN1CCCCC1 :: 90.5
CCc1cccc(Sc2cc(C(=O)N3Cc4ccc(OCCN(C)C)cc4C3)ccc2O)c1 :: 50.4
N#Cc1c(-c2ccccc2)cc(-c2ccccc2)n(CCCC(=O)NO)c1=O :: -5.36
C[C@@H]1O[C@@H](O[C@@H]2C[C@H](c3ccc4c(c3O)C(=O)C3=C(C4=O)[C@@]4(O)C(=O)C[C@](C)(O)C[C@@]4(O)C=C3)O[C@H](C)[C@H]2O)C[C@H](O)[C@@H]1O :: 91.8

Please give growth, item by item, for the list that follows.
1. CN1CCN(CCCOC(=O)c2c3c(n4ccccc24)C(=O)c2ncccc2C3=O)CC1
2. O=C(CSc1nnc2sc(Nc3cccc(Cl)c3)nn12)c1ccc(F)cc1
3. C=C(CN1CC=CCC1)[C@@H]1CC[C@]2(CO)CC[C@]3(C)[C@H](CC[C@@H]4[C@@]5(C)CC[C@H](O)C(C)(C)[C@@H]5CC[C@]43C)[C@@H]12
4. O=C(Nc1cccnc1Nc1ccc(Cl)cc1)c1cn(Cc2ccc(F)cc2)nn1
5. Cc1cc(C)cc(Nc2ccc([N+](=O)[O-])c(NCCN3CCOCC3)n2)c1
6. COc1ccc2cc(-c3ccc(-c4ccc(C(=N)N)s4)s3)ccc2c1
7. NC(CSC(c1ccccc1)(c1ccccc1)c1ccc2c(c1)OCO2)C(=O)O (centres undefined)
8. CCOC(=O)n1cc(-c2nonc2-c2cn(C)c3ccccc23)c2ccccc21

[2.37, 96.4, 90.1, 96.2, 18.1, -43, 53.9, 15.2]

Quick batch: growth for everything below.
1. CN(C)Cc1ccc(C(=O)Nc2ccc3ncnc(Nc4ccc(Oc5cccc(F)c5)c(Cl)c4)c3c2)cc1
2. CCCCCCC(=O)Nc1ncc(Cc2ccc(C)cc2)s1
3. CN1CCCc2cc(/C=C3/SC(=S)N(CCc4ccc(O)cc4)C3=O)ccc21
4. CC(O)c1ncc(/C=C2\SC(=S)N(Cc3ccccc3)C2=O)s1 (centres undefined)
5. O=C(Nc1ncc(Cc2ccccc2Cl)s1)c1cccs1

1. 22.7
2. 29
3. 83.3
4. 99.5
5. 53.7

Just for reference, PubChem BioAssay (NCI) is where these values come from.
